Quick list: recombinant UMI read abundance (log10) per entry.
# PROTOCOL SUMMARY: recombinant UMI read abundance after kanamycin selection (control-corrected) (log10(CPM+1)); higher = more efficient recombination; extreme values may be limits of the assay; sequences stand for … in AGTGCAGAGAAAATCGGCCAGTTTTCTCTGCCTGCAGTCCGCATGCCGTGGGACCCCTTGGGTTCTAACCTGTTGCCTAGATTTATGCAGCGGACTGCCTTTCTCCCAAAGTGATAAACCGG…AGGTTGGTTTCACT; site = the 11-nt donor;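 note: IS621 bridge recombinase in Escherichia coli cells against a fixed T5 target plasmid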

# annotated cases, reported recombinant UMI read abundance (log10) shown
GCATAGACATGGACCGGTTTTCCCGGTAATCCGTATTTGCC (site GAATAGACTGG) = 0.0508
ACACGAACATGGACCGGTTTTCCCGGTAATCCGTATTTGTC (site ACACGATCTGA) = 1.55
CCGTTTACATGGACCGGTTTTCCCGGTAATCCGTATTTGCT (site CCGTTTGCTAG) = 0.00881
CGTGAGTCATGGACCGGTTTTCCCGGTAATCCGTATTTGCG (site CGTGAGTCTCG) = 2.58

[Q] Name the recorded recombinant UMI read abundance (log10) of the item CGAGTATCATGGACCGGTTTTCCCGGTAATCCGTATTTGAC (site CTAGTATCTGT) in your answer.
[A] 2.01

Numbers sourced from the supplement of paper PMC11208160.
